system: UACC-62 melanoma; assay: NCI tumour cell line growth inhibition, 48 h
QUANTITY_NAME: TGI (µM)
One number for each entry, in µM.

- COMPOUND: "CC[C@@H]1[C@@H](C)O[C@@](O)([C@@H](C)[C@H](O)[C@H](C)[C@H]2OC(=O)/C=C/C=C/[C@H](C)[C@@H]([C@@H](C)[C@@H](O)[C@H](C)[C@@]3(O)C[C@@H](O[C@H]4C[C@@H](O)[C@H](O)C(C)O4)[C@H](CC)[C@@H](C)O3)OC(=O)/C=C/C=C/[C@@H]2C)C[C@H]1O[C@@H]1C[C@@H](O)[C@H](O)C(C)O1 (some centres undefined)"
  TGI (µM): 0.152
- COMPOUND: "C[Si](C)(C)C#Cc1cc(-c2nc3ccccc3s2)ccc1N"
  TGI (µM): 33.2
- COMPOUND: "NC(=S)N/N=C/c1nccc2ccccc12"
  TGI (µM): 14.7

Batch: TGI for all items listed.
1. c1ccc([CH2][Sn]([CH2]c2ccccc2)([O]c2cccc3cccnc23)[O]c2cccc3cccnc23)cc1
2. Oc1ccc([Te]CCNCC[Te]c2ccc(O)cc2)cc1
3. Cc1ccc(NC(=O)c2ccc(CN3CCN(C)CC3)cc2)cc1Nc1nccc(-c2cccnc2)n1
4. CO/C=C/C(=O)c1cc2cnc3c(=N)cc(NC(=O)C(C)C)c([nH]1)c23
5. OCc1cc2c(ccc3sc4ccc5sc6ccc7ncccc7c6c5c4c32)s1
6. Nc1ccccc1NC(=O)c1ccc(CNc2nccc(-c3cccnc3)n2)cc1

## Result
1. 0.447
2. 45.8
3. 40.5
4. 0.185
5. 38.6
6. 2.17

## Task Entry CC1(C)CC(O)C2=C(O1)C(=O)c1ncccc1C2=O (centres undefined) : reported TGI = ?
## Result 3.15
